Hello, the source for this data is patent US20230365627A1, in case you need it.

# Study system: PD-1/PD-L1 (Homo sapiens (Human))
# Assay protocol: PD-1/PD-L1 Homogenous Time-Resolved Fluorescence (HTRF) binding assay
# Condition summary: PD-L1-His 10 nM, PD-1-Ig 20 nM; read-out: HTRF IC50
Attribute: IC50

{"Molecule": "CCCC[C@H]1C(=O)N(C)[C@@H](CCCC)C(=O)N[C@@H](CC(C)C)C(=O)N[C@H](C(=O)NCC(N)=O)CSCC(=O)N[C@H]2Cc3ccc(cc3)OB(O)c3ccc(nc3)CNCC[C@@H]3NC(=O)[C@H](Cc4c[nH]c5ccccc45)NC(=O)[C@@H]4C[C@@H](O)CN4C(=O)[C@H](CC(C)C)NC(=O)[C@H](CNCc4ccc(cn4)B(O)OC(=O)Cn4cc(c5ccccc54)C[C@H](NC3=O)C(=O)N1C)NC(=O)[C@@H]1CCCN1C(=O)[C@H](CC(N)=O)NC(=O)[C@H](C)N(C)C2=O [Example 1034]", "Units text": "nM", "IC50": 11}
{"Molecule": "CCCC[C@H]1C(=O)N(C)[C@@H](CCCC)C(=O)N[C@@H](CC(C)C)C(=O)N[C@H](C(=O)NCC(N)=O)CSCC(=O)N[C@@H](Cc2ccc(O)cc2)C(=O)N(C)[C@@H](C)C(=O)N[C@@H](CC(N)=O)C(=O)N2CCC[C@H]2C(=O)N[C@H]2CNCc3ccc(cc3)B3OB(O3)c3cccc(c3)CNCC[C@H](NC(=O)[C@H](Cc3c[nH]c4ccccc34)NC(=O)[C@@H]3C[C@@H](O)CN3C(=O)[C@H](CC(C)C)NC2=O)C(=O)N[C@@H](Cc2cn(CC(=O)O)c3ccccc23)C(=O)N1C [Example 1005]", "Units text": "nM", "IC50": 7.1}

----------
# Study system: PD-1/PD-L1 (Homo sapiens (Human))
# Assay protocol: PD-1/PD-L1 Homogenous Time-Resolved Fluorescence (HTRF) binding assay
# Condition summary: PD-L1-His 10 nM, PD-1-Ig 20 nM; read-out: HTRF IC50
Quantity kind: IC50 (nM)

{"Structure string": "CCCC[C@H]1C(=O)N(C)[C@@H](CCCC)C(=O)N[C@@H](CC(C)C)C(=O)N[C@H](C(=O)NCC(N)=O)CSCC(=O)N[C@H]2Cc3ccc(cc3)OB(O)c3ccc(c(F)c3)CNCC[C@@H]3NC(=O)[C@H](Cc4c[nH]c5ccccc45)NC(=O)[C@@H]4C[C@@H](O)CN4C(=O)[C@H](CC(C)C)NC(=O)[C@H](CNCc4ccc(cc4F)B(O)OC(=O)Cn4cc(c5ccccc54)C[C@H](NC3=O)C(=O)N1C)NC(=O)[C@@H]1CCCN1C(=O)[C@H](CC(N)=O)NC(=O)[C@H](C)N(C)C2=O", "Units text": "nM", "Observed result": 4.6}

----------
Reported values of pIC50 for individual entries
# Study system: PD-1/PD-L1 (Homo sapiens (Human), UniProt Q9NZQ7)
# Sequence (Q9NZQ7 18-239): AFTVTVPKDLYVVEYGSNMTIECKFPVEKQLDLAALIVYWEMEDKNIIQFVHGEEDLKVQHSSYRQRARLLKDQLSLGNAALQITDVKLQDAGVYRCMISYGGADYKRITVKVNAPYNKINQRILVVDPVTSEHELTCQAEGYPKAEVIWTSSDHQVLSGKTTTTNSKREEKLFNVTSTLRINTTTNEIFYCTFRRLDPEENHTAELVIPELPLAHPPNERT
# Assay protocol: PD-1/PD-L1 Homogenous Time-Resolved Fluorescence (HTRF) binding assay
# Condition summary: PD-L1-His 10 nM, PD-1-Ig 20 nM; read-out: HTRF IC50
# Source text: Methods for Testing the Ability of Macrocyclic Peptides to Compete for the Binding of PD-1 to PD-L1 Using Homogenous Time-Resolved Fluorescence (HTRF) Binding Assays The ability of the compounds of formula (I) to bind to PD-L1 was investigated using a PD-1/PD-L1 Homogenous Time-Resolved Fluorescence (HTRF) binding assay. Homogenous Time-Resolved Fluorescence (HTRF) Binding Assay […]
pIC50: −log10 of the molar value.
Quantity kind: pIC50

{"Structure string": "CCCC[C@H]1C(=O)N(C)[C@@H](CCCC)C(=O)N[C@@H](CC(C)C)C(=O)N[C@H](C(=O)NCC(N)=O)CSCC(=O)N[C@H]2Cc3ccc(cc3)OB(O)c3cc(F)c(F)cc3CNCC[C@@H]3NC(=O)[C@H](Cc4c[nH]c5ccccc45)NC(=O)[C@@H]4C[C@@H](O)CN4C(=O)[C@H](CC(C)C)NC(=O)[C@H](CNCc4cc(F)c(F)cc4B(O)OC(=O)Cn4cc(c5ccccc54)C[C@H](NC3=O)C(=O)N1C)NC(=O)[C@@H]1CCCN1C(=O)[C@H](CC(N)=O)NC(=O)[C@H](C)N(C)C2=O", "Quantity kind": "pIC50", "Observed result": 8.00}
{"Structure string": "CCCC[C@H]1C(=O)N(C)[C@@H](CCCC)C(=O)N[C@@H](CC(C)C)C(=O)N[C@H](C(=O)NCC(N)=O)CSCC(=O)N[C@@H](Cc2ccc(O)cc2)C(=O)N(C)[C@@H](C)C(=O)N[C@@H](CC(N)=O)C(=O)N2CCC[C@H]2C(=O)N[C@H]2CNCc3ccc(cc3)B3OB(O3)c3ccc(cc3)CNCC[C@H](NC(=O)[C@H](Cc3c[nH]c4ccccc34)NC(=O)[C@@H]3C[C@@H](O)CN3C(=O)[C@H](CC(C)C)NC2=O)C(=O)N[C@@H](Cc2cn(CC(=O)O)c3ccccc23)C(=O)N1C", "Quantity kind": "pIC50", "Observed result": 8.20}
{"Structure string": "CCCC[C@H]1C(=O)N(C)[C@@H](CCCC)C(=O)N[C@@H](CC(C)C)C(=O)N[C@H](C(=O)NCC(N)=O)CSCC(=O)N[C@H]2Cc3ccc(cc3)OB(O)c3ccc(C)cc3CNCC[C@@H]3NC(=O)[C@H](Cc4c[nH]c5ccccc45)NC(=O)[C@@H]4C[C@@H](O)CN4C(=O)[C@H](CC(C)C)NC(=O)[C@H](CNCc4cc(C)ccc4B(O)OC(=O)Cn4cc(c5ccccc54)C[C@H](NC3=O)C(=O)N1C)NC(=O)[C@@H]1CCCN1C(=O)[C@H](CC(N)=O)NC(=O)[C@H](C)N(C)C2=O", "Quantity kind": "pIC50", "Observed result": 8.28}
{"Structure string": "CCCC[C@H]1C(=O)N(C)[C@@H](CCCC)C(=O)N[C@@H](CC(C)C)C(=O)N[C@H](C(=O)NCC(N)=O)CSCC(=O)N[C@H]2Cc3ccc(cc3)OB(O)c3ccc(cc3F)CNCC[C@@H]3NC(=O)[C@H](Cc4c[nH]c5ccccc45)NC(=O)[C@@H]4C[C@@H](O)CN4C(=O)[C@H](CC(C)C)NC(=O)[C@H](CNCc4ccc(c(F)c4)B(O)OC(=O)Cn4cc(c5ccccc54)C[C@H](NC3=O)C(=O)N1C)NC(=O)[C@@H]1CCCN1C(=O)[C@H](CC(N)=O)NC(=O)[C@H](C)N(C)C2=O", "Quantity kind": "pIC50", "Observed result": 8.40}
{"Structure string": "CCCC[C@H]1C(=O)N(C)[C@@H](CCCC)C(=O)N[C@@H](CC(C)C)C(=O)N[C@H](C(=O)NCC(N)=O)CSCC(=O)N[C@H]2Cc3ccc(cc3)OB(O)c3ccc(c(C(F)(F)F)c3)CNCC[C@@H]3NC(=O)[C@H](Cc4c[nH]c5ccccc45)NC(=O)[C@@H]4C[C@@H](O)CN4C(=O)[C@H](CC(C)C)NC(=O)[C@H](CNCc4ccc(cc4C(F)(F)F)B(O)OC(=O)Cn4cc(c5ccccc54)C[C@H](NC3=O)C(=O)N1C)NC(=O)[C@@H]1CCCN1C(=O)[C@H](CC(N)=O)NC(=O)[C@H](C)N(C)C2=O", "Quantity kind": "pIC50", "Observed result": 7.96}
